pKi: −log10 of the molar value.
For Prostaglandin E2 receptor EP2 subtype (Mus musculus, UniProt Q62053), measured pKi is reported for the entries below.

1) O=C(O)CCCSCCN1C(=O)OC[C@@H]1/C=C/[C@@H](O)Cc1cccc(C(F)(F)F)c1 :: < 5.00
2) COCc1cccc(C[C@H](O)/C=C/[C@H]2CSC(=O)N2CCSCCCC(=O)O)c1 :: < 5.00

// switching to the query compound
// query Report pKi for "O=C(O)CCCCCCN1C(=S)CC[C@@H]1/C=C/[C@@H](O)Cc1cccc(F)c1" please.
// result < 5.00

---

Target: Prostaglandin E2 receptor EP3 subtype (Mus musculus)
Sequence (P30557 whole entry): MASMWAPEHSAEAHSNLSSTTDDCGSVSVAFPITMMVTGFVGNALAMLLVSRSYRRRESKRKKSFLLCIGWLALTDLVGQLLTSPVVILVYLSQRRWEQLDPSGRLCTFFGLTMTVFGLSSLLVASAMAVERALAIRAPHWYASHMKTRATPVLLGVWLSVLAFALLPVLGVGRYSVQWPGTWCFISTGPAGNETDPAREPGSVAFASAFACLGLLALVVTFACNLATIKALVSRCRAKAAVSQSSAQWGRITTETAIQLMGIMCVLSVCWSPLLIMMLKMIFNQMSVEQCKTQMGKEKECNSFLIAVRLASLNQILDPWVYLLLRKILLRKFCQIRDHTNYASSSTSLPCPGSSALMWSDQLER
OBSERVATION TYPE: Ki (nM)

Below, each entry is followed by its recorded Ki result.
1. O=C(O)CCCSCCN1C(=O)SC[C@@H]1/C=C/[C@@H](O)Cc1cccc(F)c1 :: 1800
2. COCc1cccc(C[C@H](O)/C=C/[C@H]2CCC(=S)N2CCCCCCC(=O)O)c1 :: 6300
3. Cc1cccc(C[C@H](O)/C=C/[C@H]2COC(=O)N2CCSCCCC(=O)O)c1 :: 2800
4. O=C(O)CCCCCCN1C(=S)CC[C@@H]1/C=C/[C@@H](O)Cc1ccccc1 :: 2300
5. Cc1cccc(C[C@H](O)/C=C/[C@H]2CCC(=S)N2CCSCCCC(=O)O)c1 :: 980

P: CCCc1cccc(C[C@H](O)/C=C/[C@H]2CSC(=O)N2CCSCCCC(=O)O)c1
Q: CCCc1cccc(C[C@H](O)/C=C/[C@H]2COC(=O)N2CCSCCCC(=O)O)c1
R: COCc1cccc(C[C@H](O)/C=C/[C@H]2CCC(=O)[C@@H]2CCSCCCC(=O)O)c1
S: CCc1cccc(C[C@H](O)/C=C/[C@H]2CSC(=O)N2CCSCCCC(=O)O)c1
T: O=C(O)CCCSCCN1C(=O)OC[C@@H]1/C=C/[C@@H](O)Cc1ccccc1
// query Rank the 5 molecules: largest Ki first, smallest last. Write out the labels following the order that was asked for.
// result T, Q, P, R, S

---

assay: Total clearance rat at 0.1 mg/kg, iv and 1 mg/kg, po; assay type: ADME, organism-based; conditions: in vivo
OBSERVATION TYPE: clearance (mL/min/kg)

1) COCc1cccc(C[C@H](O)/C=C/[C@H]2CCC(=S)N2CCCCCCC(=O)O)c1 :: 102
2) Cc1cccc(C[C@H](O)/C=C/[C@H]2COC(=O)N2CCSCCCC(=O)O)c1 :: 47
3) CCc1cccc(C[C@H](O)/C=C/[C@H]2CSC(=O)N2CCSCCCC(=O)O)c1 :: 75
4) COCc1cccc(C[C@H](O)/C=C/[C@H]2CSC(=O)N2CCSCCCC(=O)O)c1 :: 47
5) CCCc1cccc(C[C@H](O)/C=C/[C@H]2CSC(=O)N2CCSCCCC(=O)O)c1 :: 52

a: Cc1cccc(C[C@H](O)/C=C/[C@H]2CCC(=S)N2CCSCCCC(=O)O)c1
b: COCc1cccc(C[C@H](O)/C=C/[C@H]2CCC(=O)N2CCCCCCC(=O)O)c1
// query Given the listed records, identify the one among a and b with higher clearance. State the label of the item chosen.
// result a
(a: 61 mL/min/kg, b: 35 mL/min/kg)

---

test: AUC in rat at 0.1 mg/kg, iv and 1 mg/kg, po; type: ADME, organism-based; details: plasma
OBSERVATION TYPE: AUC (ng·h/mL)

Below, each entry is followed by its recorded AUC result.
1. O=C(O)CCCSCCN1C(=O)OC[C@@H]1/C=C/[C@@H](O)Cc1cccc(C(F)(F)F)c1 :: 16.7
2. CCc1cccc(C[C@H](O)/C=C/[C@H]2CSC(=O)N2CCSCCCC(=O)O)c1 :: 19.5

I: COCc1cccc(C[C@H](O)/C=C/[C@H]2CCC(=S)N2CCCCCCC(=O)O)c1
II: COCc1cccc(C[C@H](O)/C=C/[C@H]2CSC(=O)N2CCSCCCC(=O)O)c1
// query Given the listed records, identify the one among I and II with higher AUC. State the label of the item chosen.
// result I
(I: 20.6 ng·h/mL, II: 6.1 ng·h/mL)

---

experiment: Cmax in rat at 0.1 mg/kg, iv and 1 mg/kg, po; format: ADME, organism-based; conditions: in vivo
OBSERVATION TYPE: Cmax (ng/mL)

Below, each entry is followed by its recorded Cmax result.
1. CCc1cccc(C[C@H](O)/C=C/[C@H]2CSC(=O)N2CCSCCCC(=O)O)c1 :: 10.4
2. CCCc1cccc(C[C@H](O)/C=C/[C@H]2CSC(=O)N2CCSCCCC(=O)O)c1 :: 11.4
3. Cc1cccc(C[C@H](O)/C=C/[C@H]2CCC(=S)N2CCSCCCC(=O)O)c1 :: 3.4
4. O=C(O)CCCSCCN1C(=O)SC[C@@H]1/C=C/[C@@H](O)Cc1cccc(C(F)(F)F)c1 :: 5.3
5. Cc1cccc(C[C@H](O)/C=C/[C@H]2COC(=O)N2CCSCCCC(=O)O)c1 :: 5.4

1: COCc1cccc(C[C@H](O)/C=C/[C@H]2CSC(=O)N2CCSCCCC(=O)O)c1
2: COCc1cccc(C[C@H](O)/C=C/[C@H]2CCC(=S)N2CCCCCCC(=O)O)c1
// query Lowest Cmax? choose 1 or 2 State the label of the item chosen.
// result 1

---

experiment: Volume of distribution at steady state in rat at 0.1 mg/kg, iv and 1 mg/kg, po; format: ADME, organism-based; conditions: in vivo, read-out: Vdss
OBSERVATION TYPE: Vd (L/kg)

Below, each entry is followed by its recorded Vd result.
1. COCc1cccc(C[C@H](O)/C=C/[C@H]2CCC(=S)N2CCCCCCC(=O)O)c1 :: 0.53
2. CCc1cccc(C[C@H](O)/C=C/[C@H]2CSC(=O)N2CCSCCCC(=O)O)c1 :: 0.538
3. O=C(O)CCCSCCN1C(=O)SC[C@@H]1/C=C/[C@@H](O)Cc1ccccc1 :: 0.792

I: Cc1cccc(C[C@H](O)/C=C/[C@H]2CCC(=S)N2CCSCCCC(=O)O)c1
II: Cc1cccc(C[C@H](O)/C=C/[C@H]2COC(=O)N2CCSCCCC(=O)O)c1
// query Given the listed records, identify the one among I and II with higher Vd. State the label of the item chosen.
// result I
(I: 1.76 L/kg, II: 0.291 L/kg)

1: COCc1cccc(C[C@H](O)/C=C/[C@H]2CCC(=O)N2CCCCCCC(=O)O)c1
2: O=C(O)CCCSCCN1C(=O)OC[C@@H]1/C=C/[C@@H](O)Cc1cccc(C(F)(F)F)c1
// query Lowest Vd? choose 1 or 2 State the label of the item chosen.
// result 1
(1: 0.386 L/kg, 2: 0.631 L/kg)

P: O=C(O)CCCSCCN1C(=O)SC[C@@H]1/C=C/[C@@H](O)Cc1cccc(C(F)(F)F)c1
Q: COCc1cccc(C[C@H](O)/C=C/[C@H]2CSC(=O)N2CCSCCCC(=O)O)c1
// query Given the listed records, identify the one among P and Q with higher Vd. State the label of the item chosen.
// result P
(P: 0.512 L/kg, Q: 0.325 L/kg)

---

experiment: AUC in rat at 0.1 mg/kg, iv and 1 mg/kg, po; assay type: ADME, organism-based; conditions: plasma
OBSERVATION TYPE: AUC (ng·h/mL)

Below, each entry is followed by its recorded AUC result.
1) CCCc1cccc(C[C@H](O)/C=C/[C@H]2CSC(=O)N2CCSCCCC(=O)O)c1 :: 17.7
2) Cc1cccc(C[C@H](O)/C=C/[C@H]2COC(=O)N2CCSCCCC(=O)O)c1 :: 16.1

P: O=C(O)CCCSCCN1C(=O)SC[C@@H]1/C=C/[C@@H](O)Cc1cccc(C(F)(F)F)c1
Q: O=C(O)CCCSCCN1C(=O)SC[C@@H]1/C=C/[C@@H](O)Cc1ccccc1
// query Lowest AUC? choose P or Q State the label of the item chosen.
// result Q
